targetOrTestSystem: NLRP3 (Homo sapiens)
Sequence (Q96P20 whole entry): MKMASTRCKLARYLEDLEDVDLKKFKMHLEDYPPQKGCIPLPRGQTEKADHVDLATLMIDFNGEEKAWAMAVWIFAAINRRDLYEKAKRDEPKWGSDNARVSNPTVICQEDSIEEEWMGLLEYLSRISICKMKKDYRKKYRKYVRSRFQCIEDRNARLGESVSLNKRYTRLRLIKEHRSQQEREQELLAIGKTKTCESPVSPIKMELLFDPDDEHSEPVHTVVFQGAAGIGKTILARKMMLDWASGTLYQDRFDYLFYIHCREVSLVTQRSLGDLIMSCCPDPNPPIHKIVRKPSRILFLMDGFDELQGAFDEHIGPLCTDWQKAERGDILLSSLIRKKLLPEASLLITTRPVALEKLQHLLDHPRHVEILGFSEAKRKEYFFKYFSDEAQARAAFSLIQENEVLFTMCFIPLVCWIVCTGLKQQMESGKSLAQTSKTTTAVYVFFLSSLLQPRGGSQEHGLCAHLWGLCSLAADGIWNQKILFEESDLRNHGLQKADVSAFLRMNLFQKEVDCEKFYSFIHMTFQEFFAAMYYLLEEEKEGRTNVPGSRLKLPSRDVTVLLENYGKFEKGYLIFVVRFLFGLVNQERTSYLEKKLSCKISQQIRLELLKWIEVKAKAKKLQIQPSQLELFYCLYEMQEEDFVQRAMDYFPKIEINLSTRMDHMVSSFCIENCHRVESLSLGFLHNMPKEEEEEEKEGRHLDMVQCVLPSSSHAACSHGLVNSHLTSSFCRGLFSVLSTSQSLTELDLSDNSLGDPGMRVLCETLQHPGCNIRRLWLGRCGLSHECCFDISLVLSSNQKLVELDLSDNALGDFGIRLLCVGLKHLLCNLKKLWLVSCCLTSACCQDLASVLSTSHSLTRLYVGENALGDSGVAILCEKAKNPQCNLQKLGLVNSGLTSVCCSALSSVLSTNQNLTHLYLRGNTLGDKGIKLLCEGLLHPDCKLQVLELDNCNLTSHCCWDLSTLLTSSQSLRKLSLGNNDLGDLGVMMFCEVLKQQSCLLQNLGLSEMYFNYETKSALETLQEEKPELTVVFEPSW
procedureText: THP-1 cells pyroptosis assay
Where a name gives a salt, the structure may show the parent alone.
Flag rule - IC50 less than 50 nM flags 1 (yes); the remaining entries get 0 (no).

Past entries and their recorded results:
compound: CCN1C[C@@H](O)C[C@@H](Nc2nnc(-c3ccc4c(c3O)CCO4)c(C)n2)C1
classAssignment: 1 (yes)

compound: Cc1nc(N[C@@H]2CCCN(C3COC3)C2)nnc1-c1ccc2c(c1O)CCO2
classAssignment: 0 (no)

compound: Cc1nc(N[C@@H]2CCCN(CCCC(=O)N3CCOCC3)C2)nnc1-c1ccc2c(c1O)CCO2
classAssignment: 1 (yes)

compound: CNC(=O)CCCN1CCC[C@@H](Nc2nnc(-c3ccc4c(c3O)CCO4)c(C)n2)C1
classAssignment: 1 (yes)

compound: Cc1nc(N[C@@H]2CCCN(CCCC(=O)N(C)CCO)C2)nnc1-c1ccc2c(c1O)CCO2
classAssignment: 0 (no)

compound: Cc1nc(N[C@@H]2CCCN(CC3(O)CC3)C2)nnc1-c1ccc2c(c1O)CCO2
classAssignment: 1 (yes)

compound: Cc1nc(N[C@@H]2CCCN(CCc3nnn[nH]3)C2)nnc1-c1ccc2c(c1O)CCO2
classAssignment: 1 (yes)

compound: COC(C)CN1CCC[C@@H](Nc2nnc(-c3ccc4c(c3O)CCO4)c(C)n2)C1 (stereo partly shown)
classAssignment: 0 (no)

compound: Cc1nc(N[C@@H]2CCCN(CCCC(=O)N(C)C)C2)nnc1-c1ccc2c(c1O)CCO2
classAssignment: 0 (no)

compound: Cc1nc(N[C@@H]2CCCN(CCCS(C)(=O)=O)C2)nnc1-c1ccc2c(c1O)CCO2
classAssignment: 0 (no)

Record COCCN1CCC[C@@H](Nc2nnc(-c3ccc4c(c3O)CCO4)c(C)n2)C1 [Example 5, formic acid salt] : is its IC50 strictly below 50 nM?
1 (yes)

Decide: IC50 of `Cc1nc(N[C@@H]2CCCN(CCCc3ncco3)C2)nnc1-c1ccc2c(c1O)CCO2` strictly below 50 nM?
1 (yes)

I wonder whether `Cc1nc(N[C@@H]2CCCN(CCCc3nnn[nH]3)C2)nnc1-c1ccc2c(c1O)CCO2` has IC50 below 50 nM. Can you tell?
1 (yes)

----------
targetOrTestSystem: human P-gp (Homo sapiens, UniProt P08183)
Construct: expressed in transfected cells; host or cells: LLC-PK1 cells (porcine kidney epithelial cells)
Sequence (P08183 whole entry): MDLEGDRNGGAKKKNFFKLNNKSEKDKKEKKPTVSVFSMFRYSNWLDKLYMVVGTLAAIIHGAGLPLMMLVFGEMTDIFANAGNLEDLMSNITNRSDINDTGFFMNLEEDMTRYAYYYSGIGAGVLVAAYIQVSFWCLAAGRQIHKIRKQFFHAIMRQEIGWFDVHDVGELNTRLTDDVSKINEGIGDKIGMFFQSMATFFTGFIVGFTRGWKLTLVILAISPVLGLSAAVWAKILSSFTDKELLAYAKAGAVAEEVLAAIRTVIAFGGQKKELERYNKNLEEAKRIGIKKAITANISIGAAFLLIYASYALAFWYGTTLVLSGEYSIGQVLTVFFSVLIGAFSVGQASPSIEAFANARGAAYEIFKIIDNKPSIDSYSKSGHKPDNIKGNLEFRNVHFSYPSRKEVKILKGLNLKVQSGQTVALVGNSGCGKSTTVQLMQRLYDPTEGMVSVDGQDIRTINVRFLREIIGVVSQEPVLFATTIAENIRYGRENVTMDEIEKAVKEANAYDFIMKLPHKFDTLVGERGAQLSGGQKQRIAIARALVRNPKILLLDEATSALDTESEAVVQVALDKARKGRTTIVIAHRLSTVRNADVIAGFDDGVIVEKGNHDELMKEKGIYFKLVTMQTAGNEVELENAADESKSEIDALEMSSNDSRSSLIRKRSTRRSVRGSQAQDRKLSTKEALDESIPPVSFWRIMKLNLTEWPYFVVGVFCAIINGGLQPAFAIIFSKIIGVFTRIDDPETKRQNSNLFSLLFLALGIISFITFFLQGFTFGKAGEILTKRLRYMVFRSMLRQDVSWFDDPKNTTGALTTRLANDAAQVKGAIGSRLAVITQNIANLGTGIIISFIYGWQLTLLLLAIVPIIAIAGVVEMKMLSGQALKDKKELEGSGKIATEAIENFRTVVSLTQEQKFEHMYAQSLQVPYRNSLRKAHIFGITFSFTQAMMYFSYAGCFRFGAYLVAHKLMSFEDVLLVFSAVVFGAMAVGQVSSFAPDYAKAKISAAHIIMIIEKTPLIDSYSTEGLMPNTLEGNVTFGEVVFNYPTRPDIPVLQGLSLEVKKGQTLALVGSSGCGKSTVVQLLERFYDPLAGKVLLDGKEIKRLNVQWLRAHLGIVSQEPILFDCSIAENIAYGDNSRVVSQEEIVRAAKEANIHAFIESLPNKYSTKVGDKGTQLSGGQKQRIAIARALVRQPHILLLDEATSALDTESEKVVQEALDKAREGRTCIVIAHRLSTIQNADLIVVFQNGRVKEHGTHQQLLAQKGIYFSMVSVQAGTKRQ
procedureText: Transcellular human P-gp assay (transfected LLC-PK1 cells)
Format: in vitro ADME
assaySetup: LLC-PK1 cells over-expressing human P-gp; read-out: Permeability
endpointLabel: Papp (×10⁻⁶ cm/s)
Only the number, expressed in ×10⁻⁶ cm/s, is required.

CNC(=O)CCCN1CCC[C@@H](Nc2nnc(-c3ccc4c(c3O)CCO4)c(C)n2)C1 [Example 10] yielded Papp of 12.2

----------
targetOrTestSystem: human P-gp (Homo sapiens)
Construct: expressed in transfected cells; host or cells: LLC-PK1 cells (porcine kidney epithelial cells)
procedureText: Transcellular human P-gp assay (transfected LLC-PK1 cells)
Format: in vitro ADME
assaySetup: LLC-PK1 cells over-expressing human P-gp; read-out: ER (efflux ratio)
endpointLabel: efflux ratio
Format: numeric value only, no unit, no commentary.

Entry under test: CNC(=O)CCCN1CCC[C@@H](Nc2nnc(-c3ccc4c(c3O)CCO4)c(C)n2)C1 [Example 10] . Its efflux ratio was 8.5
